B1: Cytoplasmic polyadenylation element-binding protein 2, residues 513 to 575; numbered along this chain, Q7Z5Q1 (parent)
chain: KRVEVKPYVLDDQMCDECQGARCGGKFAPFFCANVTCLQYYCEFCWANIHSRAGREFHKPLVK

- Variants of: B1
- assay_comment: abundance fitness (aPCA) (normalised: wild type 0, dead -1); higher = more abundant; growth selection in yeast, the domain comes from the species named
- run_parameters: Homo sapiens
readout_kind: abundance fitness

[[record]]
mut = "A28W"
experimental_result = -0.381

[[record]]
mut = "V35H"
experimental_result = -0.037

[[record]]
mut = "K26C"
experimental_result = -0.261

[[record]]
mut = "F44Y"
experimental_result = 0.059

[[record]]
mut = "K59V"
experimental_result = -0.2

[[record]]
mut = "K59R"
experimental_result = 0.024

[[record]]
mut = "N48R"
experimental_result = 0.029

[[record]]
mut = "L10K"
experimental_result = 0.1

[[record]]
mut = "Y8R"
experimental_result = 0.064

[[record]]
mut = "E43C"
experimental_result = -0.25

[[record]]
mut = "R52F"
experimental_result = -0.071

[[record]]
mut = "Q39G"
experimental_result = 0.024

[[record]]
mut = "Q39D"
experimental_result = -0.631

[[record]]
mut = "Y8E"
experimental_result = 0.18

[[record]]
mut = "Q39N"
experimental_result = -0.103

[[record]]
mut = "E43S"
experimental_result = 0.018

[[record]]
mut = "G25N"
experimental_result = -0.025

[[record]]
mut = "G20M"
experimental_result = -0.756

[[record]]
mut = "H58M"
experimental_result = -0.653

[[record]]
mut = "C23A"
experimental_result = -0.154

[[record]]
mut = "F31Y"
experimental_result = 0.033

[[record]]
mut = "N34Q"
experimental_result = -0.207

